Biological target: T1, TNFR1 (Homo sapiens, UniProt P19438)
T1 chain: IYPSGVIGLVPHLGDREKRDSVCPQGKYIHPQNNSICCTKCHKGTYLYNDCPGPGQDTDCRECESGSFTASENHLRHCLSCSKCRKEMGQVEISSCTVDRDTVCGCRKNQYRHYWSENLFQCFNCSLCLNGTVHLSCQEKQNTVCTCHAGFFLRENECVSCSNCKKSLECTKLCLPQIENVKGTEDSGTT
Assay: yeast display SC50
Measured Attribute: apparent Kd (screen) (nM)

Completed entries (count: 3):
Binder	Unit Label	apparent Kd (screen)
A11S (designed binder) MTLQELLREESLRRAEAEAFRYALELLAEKFPEQKEYLLDLAEEIESQIRSLSGVDVEDVRKFLDKEWAWVKELLAEHPAELAEVEAARAARLAELRAEVEAKVAA	nM	0.956
T2R (designed binder) MRLQELLREEALRRAEAEAFRYALELLAEKFPEQKEYLLDLAEEIESQIRSLSGVDVEDVRKFLDKEWAWVKELLAEHPAELAEVEAARAARLAELRAEVEAKVAA	nM	0.956
R89L (designed binder) MTLQELLREEALRRAEAEAFRYALELLAEKFPEQKEYLLDLAEEIESQIRSLSGVDVEDVRKFLDKEWAWVKELLAEHPAELAEVEAALAARLAELRAEVEAKVAA	nM	0.79

1 = D65R (designed binder) MTLQELLREEALRRAEAEAFRYALELLAEKFPEQKEYLLDLAEEIESQIRSLSGVDVEDVRKFLRKEWAWVKELLAEHPAELAEVEAARAARLAELRAEVEAKVAA
2 = E58M (designed binder) MTLQELLREEALRRAEAEAFRYALELLAEKFPEQKEYLLDLAEEIESQIRSLSGVDVMDVRKFLDKEWAWVKELLAEHPAELAEVEAARAARLAELRAEVEAKVAA
3 = A11M (designed binder) MTLQELLREEMLRRAEAEAFRYALELLAEKFPEQKEYLLDLAEEIESQIRSLSGVDVEDVRKFLDKEWAWVKELLAEHPAELAEVEAARAARLAELRAEVEAKVAA
Lookup: # ascending order, key=apparent Kd (screen) To answer, write out the labels according to the requested order.
Found: 2, 1, 3
(2: 0.49 nM, 1: 0.718 nM, 3: 1.27 nM)
